- Test system: HKB-11 human lymphoma cells
- experiment: Alamar Blue antiproliferative assay, HKB-11
- Format: cell-based
- assay.setup: HKB-11, 72 h, single postbiotics, GraphPad Prism nonlinear regression, read-out: IC50 (concentration required to inhibit 50% of cell growth)
readout.label: pIC50
# pIC50 = -log10(concentration in molar units)

>>> result_number("CCC(=O)[O-].[Na+] [Sodium Propionate, sodium propionate]")
1.84

Short answer on HKB-11 human lymphoma cells for CCCC(=O)[O-].[Na+] [Sodium Butyrate, sodium butyrate] , pIC50: 2.69

Log: HKB-11 human lymphoma cells, compound O=c1oc2cc(O)ccc2c2ccccc12 , pIC50 = 4.06

Field pIC50 (system: HKB-11 human lymphoma cells) for entry O=c1oc2cc(O)ccc2c2ccc(O)cc12 = 3.42
